# TGT: Full-length human SMYD2 (residues 1-433), wild type (human, UniProt Q9NRG4 1-433)
# Sequence (Q9NRG4 whole entry, the tested form may be a part): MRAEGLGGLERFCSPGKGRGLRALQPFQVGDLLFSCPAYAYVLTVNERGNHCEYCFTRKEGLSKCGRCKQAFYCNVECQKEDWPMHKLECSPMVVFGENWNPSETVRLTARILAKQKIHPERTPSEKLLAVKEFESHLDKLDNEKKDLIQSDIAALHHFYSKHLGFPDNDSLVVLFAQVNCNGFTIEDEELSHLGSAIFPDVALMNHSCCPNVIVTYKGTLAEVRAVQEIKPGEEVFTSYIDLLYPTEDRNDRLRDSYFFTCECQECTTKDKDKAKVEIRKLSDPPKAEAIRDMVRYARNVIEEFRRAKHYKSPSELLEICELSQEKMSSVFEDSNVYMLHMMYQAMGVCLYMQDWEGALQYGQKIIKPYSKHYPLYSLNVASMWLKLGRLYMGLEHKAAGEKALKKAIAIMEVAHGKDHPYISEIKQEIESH
# EXPERIMENT_NOTES: ITC; one-site model (n = 2.01)
RECORDED_METRIC: Kd (µM)
I only need the number, in µM, no unit after it.

Challenge: Recorded Kd for RMKLTLKGGAAVD [PARP1 peptide (13-residue synthetic peptide, human PARP1 residues 522-534)] , please?
Response given: 17.7
